# assayed-system: type I collagen (pCcollagen I) (Homo sapiens)
# Construct: made in house; host or cells: cultured human skin fibroblasts (endogenous procollagen purified from the medium, 14C-labelled)
# Sequence (P02452 162-1218 limits assumed): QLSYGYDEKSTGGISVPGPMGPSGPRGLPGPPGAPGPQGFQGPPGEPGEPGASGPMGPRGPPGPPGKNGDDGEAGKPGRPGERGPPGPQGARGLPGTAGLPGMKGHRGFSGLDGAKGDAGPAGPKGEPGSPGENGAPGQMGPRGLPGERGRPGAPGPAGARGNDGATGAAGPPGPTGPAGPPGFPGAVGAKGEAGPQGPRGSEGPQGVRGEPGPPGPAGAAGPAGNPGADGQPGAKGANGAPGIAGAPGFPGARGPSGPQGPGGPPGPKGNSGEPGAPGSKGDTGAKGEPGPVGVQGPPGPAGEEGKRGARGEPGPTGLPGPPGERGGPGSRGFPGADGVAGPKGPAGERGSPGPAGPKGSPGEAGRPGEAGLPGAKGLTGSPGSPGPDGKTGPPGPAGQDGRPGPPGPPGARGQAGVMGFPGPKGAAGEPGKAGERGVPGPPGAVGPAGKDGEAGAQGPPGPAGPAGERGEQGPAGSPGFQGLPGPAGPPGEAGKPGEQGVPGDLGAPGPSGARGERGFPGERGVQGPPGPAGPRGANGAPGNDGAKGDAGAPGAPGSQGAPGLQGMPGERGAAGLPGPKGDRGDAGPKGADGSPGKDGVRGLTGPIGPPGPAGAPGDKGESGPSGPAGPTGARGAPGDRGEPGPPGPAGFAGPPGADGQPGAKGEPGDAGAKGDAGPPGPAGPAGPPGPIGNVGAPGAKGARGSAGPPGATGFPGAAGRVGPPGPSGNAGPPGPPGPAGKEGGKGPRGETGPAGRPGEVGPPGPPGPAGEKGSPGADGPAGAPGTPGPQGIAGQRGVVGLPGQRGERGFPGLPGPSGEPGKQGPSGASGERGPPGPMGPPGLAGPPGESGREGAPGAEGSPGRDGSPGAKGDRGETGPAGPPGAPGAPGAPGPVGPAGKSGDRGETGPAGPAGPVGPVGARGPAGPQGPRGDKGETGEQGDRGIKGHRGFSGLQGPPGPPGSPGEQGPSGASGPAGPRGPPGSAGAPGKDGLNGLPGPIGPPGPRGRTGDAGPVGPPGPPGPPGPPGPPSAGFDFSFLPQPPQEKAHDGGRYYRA
# Sequence (P08123 80-1119 partner limits assumed): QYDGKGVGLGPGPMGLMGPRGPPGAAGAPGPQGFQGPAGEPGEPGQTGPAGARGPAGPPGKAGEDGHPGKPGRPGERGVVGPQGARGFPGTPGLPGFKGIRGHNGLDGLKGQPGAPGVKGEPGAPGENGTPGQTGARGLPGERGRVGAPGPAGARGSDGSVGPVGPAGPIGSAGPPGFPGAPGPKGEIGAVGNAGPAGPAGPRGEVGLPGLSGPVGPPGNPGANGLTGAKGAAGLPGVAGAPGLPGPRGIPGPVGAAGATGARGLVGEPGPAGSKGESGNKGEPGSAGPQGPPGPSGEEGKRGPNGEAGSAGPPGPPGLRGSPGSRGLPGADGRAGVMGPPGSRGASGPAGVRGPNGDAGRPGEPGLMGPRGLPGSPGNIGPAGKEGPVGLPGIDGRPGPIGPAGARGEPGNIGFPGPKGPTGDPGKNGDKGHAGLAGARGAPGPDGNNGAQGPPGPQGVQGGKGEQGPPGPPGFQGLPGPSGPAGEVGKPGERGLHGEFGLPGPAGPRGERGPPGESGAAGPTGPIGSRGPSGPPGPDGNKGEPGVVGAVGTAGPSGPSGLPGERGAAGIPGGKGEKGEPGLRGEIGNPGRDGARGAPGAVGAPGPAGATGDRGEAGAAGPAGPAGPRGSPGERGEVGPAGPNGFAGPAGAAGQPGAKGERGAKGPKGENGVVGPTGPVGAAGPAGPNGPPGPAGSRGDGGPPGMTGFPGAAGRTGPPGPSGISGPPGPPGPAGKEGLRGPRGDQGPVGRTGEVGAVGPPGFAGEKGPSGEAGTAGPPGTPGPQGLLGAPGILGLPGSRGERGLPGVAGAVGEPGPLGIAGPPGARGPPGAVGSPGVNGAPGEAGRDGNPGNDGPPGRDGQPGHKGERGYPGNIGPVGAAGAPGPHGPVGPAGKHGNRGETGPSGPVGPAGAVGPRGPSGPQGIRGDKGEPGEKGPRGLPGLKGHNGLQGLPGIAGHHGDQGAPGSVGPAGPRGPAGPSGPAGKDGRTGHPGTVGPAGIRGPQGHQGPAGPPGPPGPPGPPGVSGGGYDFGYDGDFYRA
# Format: biochemical
# particulars: peptide 2.5 mM
No end group written: not given here.

{"columns": ["substance", "inhibition of fibril assembly (in words)"],
 "data": [
  ["AKGAAGLPGVAGAPGL [Peptide F1]", "little if any inhibition"],
  ["ADGPAGAPGTPGPQGIAGQRGVVGL [Peptide F6]", "little if any inhibition"],
  ["DFRYRA [Peptide F10, DFRYRA]", "Smaller effects"],
  ["GYDFGYDGDF [Peptide F9]", "Smaller effects"]
]}
